B1: VH:VL chains; a variant is named by its letters at X, in order (parent)
chain 1: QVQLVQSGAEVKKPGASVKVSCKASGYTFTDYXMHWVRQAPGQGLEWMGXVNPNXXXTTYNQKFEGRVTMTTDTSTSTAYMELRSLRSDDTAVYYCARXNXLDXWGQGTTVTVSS
chain 2: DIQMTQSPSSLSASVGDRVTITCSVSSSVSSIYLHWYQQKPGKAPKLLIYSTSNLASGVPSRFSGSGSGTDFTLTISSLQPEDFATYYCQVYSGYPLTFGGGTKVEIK

- Variants of: B1
- Assay Comment: yeast display scFab, FACS + sequencing
- Assay Setup: with MET
The other results are listed elsewhere or left out. How many sequences the whole screen found active is unknown.
Measure Name: antigen binding call

Past entries and their recorded results:
DATGGSGD; no binding
YRAAGSWS; binds
YRTGAAGV; binds
YKRGGAAA; binds

stdin: Fill in: antigen binding call of "VEGGGSSA" is ___
stdout: no binding

stdin: I am curious: what antigen binding call value has been reported for "VKGRAAVA" ?
stdout: no binding

stdin: // returns reported antigen binding call for input "FRGRDVVV"
stdout: no binding

stdin: Which value of antigen binding call has been reported for "SAREGALD" in the records?
stdout: no binding

stdin: Suppose we examine the variant "FRGGSSAA" ; what antigen binding call value has been reported?
stdout: binds
